Biological target: 5-hydroxytryptamine receptor 2A (Rattus norvegicus, UniProt P14842)
Sequence (P14842 whole entry): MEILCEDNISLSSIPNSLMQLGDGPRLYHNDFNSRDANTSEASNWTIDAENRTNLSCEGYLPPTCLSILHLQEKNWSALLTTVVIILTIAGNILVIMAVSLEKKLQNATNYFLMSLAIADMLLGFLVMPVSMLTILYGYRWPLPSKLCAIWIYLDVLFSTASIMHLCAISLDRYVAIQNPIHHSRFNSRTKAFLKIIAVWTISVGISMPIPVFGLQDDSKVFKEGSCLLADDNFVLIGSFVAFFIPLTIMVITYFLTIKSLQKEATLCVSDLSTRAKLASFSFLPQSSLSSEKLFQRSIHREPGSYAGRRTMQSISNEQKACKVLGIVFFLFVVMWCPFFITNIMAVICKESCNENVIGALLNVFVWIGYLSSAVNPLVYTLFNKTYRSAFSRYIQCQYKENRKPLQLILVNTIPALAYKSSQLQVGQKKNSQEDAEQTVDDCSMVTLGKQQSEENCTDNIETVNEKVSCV
Assay: Binding affinity against rat 5-hydroxytryptamine 2A receptor in NIH3T3 cells.
Classification scheme (Ki): bottom range = under 0.02 µM, center range = from 0.02 µM up to 0.04 µM, top range = 0.04 µM and over

CC(C)N1CN(C)C2(CCN(CCCC(=O)c3ccc(F)cc3)CC2)C1=O ... bottom range
CCN1CN(C)C2(CCN(CCCC(=O)c3ccc(F)cc3)CC2)C1=O ... center range
NC(=O)C1(N)CCN(CCCC(=O)c2ccc(F)cc2)CC1 ... top range
NC(=O)C1(NC2CCCCC2)CCN(CCCC(=O)c2ccc(F)cc2)CC1 ... bottom range
CC(C)N1CNC(=O)C12CCN(CCCC(=O)c1ccc(F)cc1)CC2 ... center range
CN1CN(C)C2(CCN(CCCC(=O)c3ccc(F)cc3)CC2)C1=O ... top range
O=C(CCCN1CCC2(CC1)NCNC2=O)c1ccc(F)cc1 ... top range
CC(C)NC1(C(N)=O)CCN(CCCC(=O)c2ccc(F)cc2)CC1 ... bottom range
CN1CNC(=O)C12CCN(CCCC(=O)c1ccc(F)cc1)CC2 ... center range

In: Textbook exercise: identify the category of the compound given here, CCCCN1CN(C)C2(CCN(CCCC(=O)c3ccc(F)cc3)CC2)C1=O , according to its measured value.
Out: bottom range

###

Biological target: 5-hydroxytryptamine receptor 1A (Rattus norvegicus)
Sequence (P19327 whole entry): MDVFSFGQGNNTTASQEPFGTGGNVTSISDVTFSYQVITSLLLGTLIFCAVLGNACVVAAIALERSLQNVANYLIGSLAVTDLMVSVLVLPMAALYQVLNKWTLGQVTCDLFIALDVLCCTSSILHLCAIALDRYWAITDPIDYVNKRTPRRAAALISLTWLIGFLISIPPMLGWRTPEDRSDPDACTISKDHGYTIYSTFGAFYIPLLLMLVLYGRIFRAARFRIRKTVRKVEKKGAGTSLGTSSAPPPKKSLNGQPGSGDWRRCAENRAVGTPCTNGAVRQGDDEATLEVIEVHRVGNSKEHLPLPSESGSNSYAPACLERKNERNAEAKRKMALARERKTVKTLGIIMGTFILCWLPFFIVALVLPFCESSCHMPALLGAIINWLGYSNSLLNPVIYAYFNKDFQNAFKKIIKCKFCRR
Experiment: Binding affinity against rat 5-hydroxytryptamine 1A receptor in CHO cells.
The reader will find reported Ki values listed item by item below.
Give a bare numeral; the unit µM is implied.

Solved cases below.
NC(=O)C1(NC2CCCCC2)CCN(CCCC(=O)c2ccc(F)cc2)CC1 ... 1.61
CCN1CNC(=O)C12CCN(CCCC(=O)c1ccc(F)cc1)CC2 ... 7.96

Now, please, on to the next molecule.
Recorded Ki (molecule O=C(CCCN1CCC2(CC1)C(=O)NCN2c1ccccc1)c1ccc(F)cc1 [SPIPERONE] ): 0.058

###

Molecular target: D(2) dopamine receptor (Rattus norvegicus, UniProt P61169)
Sequence (P61169 whole entry): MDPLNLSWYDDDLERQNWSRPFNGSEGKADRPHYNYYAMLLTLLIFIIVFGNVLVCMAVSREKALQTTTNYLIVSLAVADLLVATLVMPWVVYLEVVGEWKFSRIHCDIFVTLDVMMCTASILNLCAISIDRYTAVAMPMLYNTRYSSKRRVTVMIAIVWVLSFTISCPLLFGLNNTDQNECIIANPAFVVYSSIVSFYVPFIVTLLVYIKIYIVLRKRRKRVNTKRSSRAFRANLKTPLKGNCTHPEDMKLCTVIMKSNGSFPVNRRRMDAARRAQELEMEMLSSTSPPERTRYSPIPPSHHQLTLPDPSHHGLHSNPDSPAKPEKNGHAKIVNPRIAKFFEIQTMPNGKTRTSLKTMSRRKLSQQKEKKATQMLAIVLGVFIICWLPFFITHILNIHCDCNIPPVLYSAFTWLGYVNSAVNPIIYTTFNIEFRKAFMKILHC
Assay: Binding affinity against rat Dopamine receptor D2.
ASSAY ENDPOINT: Ki (nM)
Give a bare numeral; the unit nM is implied.

CN1CNC(=O)C12CCN(CCCC(=O)c1ccc(F)cc1)CC2 ... 220
CCN1CNC(=O)C12CCN(CCCC(=O)c1ccc(F)cc1)CC2 ... 170
CCCN1CN(C)C2(CCN(CCCC(=O)c3ccc(F)cc3)CC2)C1=O ... 130
CN1CNC(=O)C12CCN(CCCOc1ccc(F)cc1)CC2 ... 734
CC(C)NC1(C(N)=O)CCN(CCCC(=O)c2ccc(F)cc2)CC1 ... 400

Recorded Ki (molecule NC(=O)C1(NC2CCCCC2)CCN(CCCC(=O)c2ccc(F)cc2)CC1 ): 43

###

Target: D(2) dopamine receptor (Rattus norvegicus)
Assay: Binding affinity against rat Dopamine receptor D2.
ASSAY ENDPOINT: Ki (nM)
Give a bare numeral; the unit nM is implied.

Solved cases below.
CN1CN(C)C2(CCN(CCCC(=O)c3ccc(F)cc3)CC2)C1=O ... 300
CC(C)N1CNC(=O)C12CCN(CCCC(=O)c1ccc(F)cc1)CC2 ... 400

Recorded Ki (molecule CCCN1CN(C)C2(CCN(CCCOc3ccc(F)cc3)CC2)C1=O ): 230

Recorded Ki (molecule CC(C)N1CN(C)C2(CCN(CCCC(=O)c3ccc(F)cc3)CC2)C1=O ): 46

Recorded Ki (molecule O=C(CCCN1CCC2(CC1)C(=O)NCN2C1CCCCC1)c1ccc(F)cc1 ): 0.7

Recorded Ki (molecule CCCCN1CN(C)C2(CCN(CCCC(=O)c3ccc(F)cc3)CC2)C1=O ): 13
